Exercise: for every item that follows, state its recorded inhibition.
# assayed-target: Bifunctional protein GlmU (Mycobacterium tuberculosis (strain ATCC 25618 / H37Rv))
# test-name: inhibition of mycobacterial GlmU enzyme – biochemical, glucosamine-1-phosphate acetyltransferase (AID 1376);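 further: 0% = complete reaction with vehicle and 100% = reaction without substrate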
# cond: M. tuberculosis GlmU acetyltransferase enzyme assay; active compounds read high;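 tested at 30 µM in the primary screen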
Hit rate of the full screen: of about 220,000 compounds, about 530 (0.24%) were called active. The entries come from a sample that favours actives as a whole. Potency and affinity values are given separately.

// returns reported inhibition for input O=[N+]([O-])c1ccc2c(c1)C(N1CCOCC1)/C(=C/COc1ccc(Cl)cc1Cl)O2 (stereo not given) -0.92% (inactive)

Given CCC(c1ccccc1)c1nnc(NC(=O)c2ccco2)s1 (stereo not given) , state its recorded inhibition. 4.36% (inactive)

Which inhibition is listed for Cc1cccc(Cn2c(N3CCc4ccccc4C3)nc3c2c(=O)[nH]c(=O)n3C)c1 ? 2.16% (inactive)

Fill in the blank: the reported inhibition of O=C1c2cccc([N+](=O)[O-])c2C(=O)N1c1ccccc1 is ____. 1.03% (inactive)

Item O=[N+]([O-])c1cc(Cl)cc(/C=N/Nc2nc3ccccc3s2)c1O has what recorded inhibition? 0.98% (inactive)

* * *

# assayed-target: Bifunctional protein GlmU (Mycobacterium tuberculosis (strain ATCC 25618 / H37Rv)) (UniProt P9WMN3)
# Sequence (P9WMN3 whole entry, looked up): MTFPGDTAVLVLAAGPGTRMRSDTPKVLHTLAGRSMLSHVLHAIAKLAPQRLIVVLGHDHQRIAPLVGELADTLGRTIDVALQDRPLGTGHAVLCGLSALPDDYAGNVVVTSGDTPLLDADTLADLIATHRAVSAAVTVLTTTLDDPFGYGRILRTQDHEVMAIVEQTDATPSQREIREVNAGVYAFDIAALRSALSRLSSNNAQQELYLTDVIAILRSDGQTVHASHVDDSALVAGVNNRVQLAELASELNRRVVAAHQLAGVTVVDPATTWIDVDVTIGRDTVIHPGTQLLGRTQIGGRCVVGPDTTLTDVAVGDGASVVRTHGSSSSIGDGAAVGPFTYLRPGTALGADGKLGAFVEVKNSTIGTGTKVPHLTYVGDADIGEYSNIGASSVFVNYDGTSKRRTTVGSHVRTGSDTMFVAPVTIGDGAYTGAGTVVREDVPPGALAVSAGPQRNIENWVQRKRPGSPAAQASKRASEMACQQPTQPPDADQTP
# test-name: inhibition of mycobacterial GlmU enzyme – biochemical, glucosamine-1-phosphate acetyltransferase (AID 1376);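 further: 0% = complete reaction with vehicle and 100% = reaction without substrate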
# cond: M. tuberculosis GlmU acetyltransferase enzyme assay; active compounds read high;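 tested at 30 µM in the primary screen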
Screen size: about 220,000 compounds; about 530 (0.24%) were called active. This is one part of a sample in which actives are shown more often than they occur. Entries with a potency or affinity are not part of this list.
Kindly supply the reported inhibition values for the records listed here.
Write the number in % without appending the unit.

Suppose we examine the compound O=C(O)C1Nc2c(O)cc(Cl)c([N+](=O)[O-])c2C2C=CCC12 (configuration not stated) ; what inhibition value has been reported? 65

# get_value(readout='inhibition', item= O=C(O)C1Nc2c(C(=O)N3CCOCC3)cccc2C2C=CCC12 (configuration not stated) ) 1.95

What value of inhibition has been reported for the following compound? COc1ccc(C(=O)NC(=S)NC(C)C)cc1Br 4.89

Given the entry O=[N+]([O-])c1ccc(Cl)c2c1C1C=CCC1C(c1ccccn1)N2 (configuration not stated) , report its measured inhibition. 3.42

Requested read-out: inhibition. Entry: CNS(=O)(=O)c1cccc(C(=O)OCC(=O)Nc2ccc(N3CCCCC3)cc2)c1 -3.94

Entry Cc1ccc2c(c1C)NC(C(=O)O)C1CC=CC21 (configuration not stated) : reported inhibition = ? 13.2

Report inhibition for O=C(O)C1Nc2c(O)cccc2C2C=CCC12 (configuration not stated) please. 33.7

What value of inhibition has been recorded for this entry: COc1ccc(C(=O)NC(=S)NC(C)(C)C)cc1Br -2.26

Recorded inhibition for CCOC(=O)C1Nc2c(F)cc(C)cc2C2C=CCC12 (configuration not stated) , please? 3.49

Any idea what its inhibition is? The compound is COC(=O)CNC(=O)C1Nc2ccccc2C2C=CCC12 (configuration not stated) 3.22

Query: inhibition; subject: CC(C)C1Nc2ccc(C(=O)O)cc2C2C=CCC21 (configuration not stated) 5.77

What value of inhibition has been recorded for this entry: COc1cccc2c1NC(C(=O)O)C1CC=CC21 (configuration not stated) 60.8
